All values here come from patent US20240182536A1.

Target: T1, human IL-18 binding protein (IL-18BP) (human, UniProt O95998 31-194)
T1 sequence (looked up): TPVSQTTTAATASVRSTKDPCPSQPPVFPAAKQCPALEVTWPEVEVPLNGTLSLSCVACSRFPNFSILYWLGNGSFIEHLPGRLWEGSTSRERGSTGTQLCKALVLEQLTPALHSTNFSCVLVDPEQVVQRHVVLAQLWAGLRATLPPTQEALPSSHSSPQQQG
Test: cell-based or functional assay
Listed next: entries and their corresponding HEK-Blue Activity Assay Ec50 (pM), +300 nM hu IL-18BP.
Express it in pM; write the number only.

1) IL-18 variant G3T, M60K (ligand) YFTKLESKLSVIRNLNDQVLFIDQGNRPLFEDMTDSDMRDNAPRTIFIISMYKDSQPRGKAVTISVKSEKISTLSSENKIISFKEMNPPDNIKDTKSDIIFFQRSVPGHDNKMQFESSSYEGYFLASEKERDLFKLILKKEDELGDRSIMFTVQNED :: 2.4
2) IL-18 variant G3V, M60K, D157E (ligand) YFVKLESKLSVIRNLNDQVLFIDQGNRPLFEDMTDSDMRDNAPRTIFIISMYKDSQPRGKAVTISVKSEKISTLSSENKIISFKEMNPPDNIKDTKSDIIFFQRSVPGHDNKMQFESSSYEGYFLASEKERDLFKLILKKEDELGDRSIMFTVQNEE :: 0.6
3) IL-18 variant G3V, E6K, K53A (ligand, also called G3V, K53A, E6K) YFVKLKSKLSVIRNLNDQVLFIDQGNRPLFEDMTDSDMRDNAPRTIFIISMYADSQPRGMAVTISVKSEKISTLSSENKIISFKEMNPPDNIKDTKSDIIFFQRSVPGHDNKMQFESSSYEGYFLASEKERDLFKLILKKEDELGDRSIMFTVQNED :: 1.71

Next, consider the following binder.
Input line: Entry IL-18 variant G3V, M60K (ligand) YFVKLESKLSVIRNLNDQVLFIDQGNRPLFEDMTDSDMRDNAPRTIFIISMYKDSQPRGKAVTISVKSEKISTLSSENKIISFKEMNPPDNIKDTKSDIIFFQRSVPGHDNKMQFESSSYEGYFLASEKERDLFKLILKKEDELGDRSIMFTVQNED : reported HEK-Blue Activity Assay Ec50 (pM), +300 nM hu IL-18BP = ?
Output line: 0.59
